# System: yeast thioredoxin (Trx)/yeast Trx reductase (TR)
# protocol-description: Peroxidase activity assay (H2O2 reduction, NADPH oxidation)
# Assay type: biochemical
# measurement-setup: 50 μM test compound, 3 μM yeast Trx, 1.5 μM yeast TR, 250 μM NADPH, 1.2 mM H2O2, 30° C.; NADPH oxidized per minute
# reported Peroxidase activity for H2O2 reduction; entries follow
attribute-measured: Peroxidase activity for H2O2 reduction (nmol/min)

{"columns": ["compound", "target-system", "attribute-measured", "obs-value"],
 "data": [
  ["O=C1C2CSSC3(COCCN13)C(=O)N2Cc1ccccc1 (centres unmarked)", "yeast thioredoxin (Trx)/yeast Trx reductase (TR)", "Peroxidase activity for H2O2 reduction", 4.91],
  ["CCN1C(=O)C23COCCN2C(=O)C1CSS3 (centres unmarked)", "yeast thioredoxin (Trx)/yeast Trx reductase (TR)", "Peroxidase activity for H2O2 reduction", 5.06],
  ["COC(=O)c1ccc(CN2C(=O)C3CSSC2(C)C(=O)N3C)cc1 (centres unmarked)", "yeast thioredoxin (Trx)/yeast Trx reductase (TR)", "Peroxidase activity for H2O2 reduction", 4.91],
  ["CN1C(=O)C2CSSC1(C)C(=O)N2Cc1ccccc1 (centres unmarked)", "yeast thioredoxin (Trx)/yeast Trx reductase (TR)", "Peroxidase activity for H2O2 reduction", 5.05],
  ["CN1C(=O)C2(C)SSCC1C(=O)N2Cc1ncccn1 (centres unmarked)", "yeast thioredoxin (Trx)/yeast Trx reductase (TR)", "Peroxidase activity for H2O2 reduction", 4.93]
]}
